tested on: Capitella WaNaC^212912; assay: Two-electrode voltage clamp of Xenopus oocytes expressing Capitella WaNaC 212912; type: cell-based, Capitella teleta; settings: WT channel, Xenopus oocytes, n = 8, mean ± SEM; read-out: AWVGDKSLSWa EC50
pEC50: −log10 of the molar value. Where no end group is shown, it is not given here.
readoutName: pEC50

{"substance": "AWVGDKSLSW-NH2 [AWVGDKSLSWa]", "endpointResult": 5.70}
